Reference source: PubChem BioAssay (NCI)

System: COLO 205 colon
Procedure Text: NCI tumour cell line growth inhibition, 48 h
Each entry below lists one item and its recorded TGI value.
Response body: numeric value in µM, unit text excluded.

Below, 5 compounds whose answers are already recorded.
IN: Quick one: give measured TGI for `N#CC1N(C(=O)c2ccc(F)cc2)c2ccccc2N1C(=O)c1ccc(F)cc1`
OUT: 45.6

IN: Name the recorded TGI of the compound listed here: `Cc1sc2nc(-c3ccccn3)c(/C=N/N=C(N)N)n2c1C`
OUT: 11.4

IN: For `O=[N+]([O-])c1cccc2nc3ccccc3c(NCCC[N+]3([O-])CCCCC3)c12` , write its TGI.
OUT: 0.317

IN: Tell me its TGI given `O=C(Cc1ccc(/C=C/C(=O)c2ncc[nH]2)cc1)Nc1ccc(Br)cc1` as the entry.
OUT: 5.74

IN: Indicate the recorded TGI value for this compound: COc1cc(C2c3cc4c(cc3C3OC(=O)C2C3CO)OCO4)cc(OC)c1OC (centres undefined)
OUT: 0.0372

New cases:
IN: Please give the documented TGI of `CC(/C=N/NC1=NCCCCN1)=N\NC1=NCCCCN1`
OUT: 57
